- System: BDF1 mice, P388 leukemia ip, median survival T/C
- procedure-text: NCI In Vivo Anticancer Drug Screen. Data for tumor model P388 Leukemia (intraperitoneal) in B6D2F1 (BDF1) mice
- measurement-conditions: endpoint: median survival time; dose: 12.5 mg/kg/injection; schedule: Q01DX009 (ip); vehicle: saline with Tween-80; higher = longer survival
Inconclusive results and toxic doses are left out.
Below is a list of entries, each paired with its recorded T/C value.
quantity-name: T/C

compound=NC(=S)N/N=C/c1ccc(-c2ccccc2)cc1 quantity_name=T/C observed_measurement="90 % of control"
compound=CSc1ccc(N=C=C(c2ccccc2)c2ccccc2)cc1 quantity_name=T/C observed_measurement="90 % of control"
compound="CCN1CCCC(Nc2nc(Nc3cc(Cl)cc(Cl)c3)nc3ccc(Cl)cc23)C1 (stereo not given)" quantity_name=T/C observed_measurement="109 % of control"
compound=CCOC(=O)Nc1nc2ccccc2[nH]1 quantity_name=T/C observed_measurement="116 % of control"
compound=CCOC(=O)c1cnn2c(SC)ncnc12 quantity_name=T/C observed_measurement="99 % of control"

* * *

- System: BDF1 mice, P388 leukemia ip, median survival T/C
- procedure-text: NCI In Vivo Anticancer Drug Screen. Data for tumor model P388 Leukemia (intraperitoneal) in B6D2F1 (BDF1) mice
- measurement-conditions: endpoint: median survival time; dose: 50.0 mg/kg/injection; schedule: Q01DX009 (ip); vehicle: Klucel (hydroxypropylcellulose) (HPC)
Toxic doses and inconclusive results are not listed. Rule for the calls: active = survival T/C of 150% or more; inactive = T/C below 125% in these data.
Classes used: 1.0 (active), 0.0 (inactive)

molecule=CCCCCCCCCCOP(=O)(O)OCCCCCCCCCC target="BDF1 mice, P388 leukemia ip, median survival T/C" assigned_label=0.0
molecule=O=S(=O)(O)c1ccc(-c2ccccc2)cc1 target="BDF1 mice, P388 leukemia ip, median survival T/C" assigned_label=0.0
molecule=CC(=O)Nc1ccc(OCCOC(=O)Nc2c(Cl)cccc2Cl)cc1 target="BDF1 mice, P388 leukemia ip, median survival T/C" assigned_label=0.0
molecule=COc1cc2cc[n+](C)c(Cc3ccccc3)c2cc1OC target="BDF1 mice, P388 leukemia ip, median survival T/C" assigned_label=1.0
molecule="CC1=C(C)C2(C)C1(C)C1(C)C(C)=C(C)C21C (stereo unspecified)" target="BDF1 mice, P388 leukemia ip, median survival T/C" assigned_label=0.0
molecule=CCCCC[C@@H](CN(C)C)[C@H](O)/C=C/c1ccc(Cl)cc1 target="BDF1 mice, P388 leukemia ip, median survival T/C" assigned_label=0.0
molecule=CNC(=S)N(N)c1ccccc1 target="BDF1 mice, P388 leukemia ip, median survival T/C" assigned_label=0.0
molecule=C[C@]12CCC(=O)C=C1CC[C@H]1[C@@H]3CC[C@@]4(OCC4=O)[C@@]3(C)C[C@H](O)[C@@]12F target="BDF1 mice, P388 leukemia ip, median survival T/C" assigned_label=0.0
molecule=O=C(O)COc1c(Br)cc(Br)cc1Br target="BDF1 mice, P388 leukemia ip, median survival T/C" assigned_label=0.0
molecule="NC(CCCC(=O)O)P(=O)(O)O (stereo unspecified)" target="BDF1 mice, P388 leukemia ip, median survival T/C" assigned_label=0.0
molecule=COc1cccc(CC(=O)C(=O)O)c1 target="BDF1 mice, P388 leukemia ip, median survival T/C" assigned_label=0.0
molecule=Cc1cc(C)c(-c2c(C)cc(C)c(C(=O)c3ccc([N+](=O)[O-])cc3)c2C)c(C)c1C(=O)c1ccc([N+](=O)[O-])cc1 target="BDF1 mice, P388 leukemia ip, median survival T/C" assigned_label=0.0
molecule=CCOC(=O)C(C(=O)OCC)=C(C#N)c1c[nH]c2ccccc12 target="BDF1 mice, P388 leukemia ip, median survival T/C" assigned_label=0.0
molecule=CC(=O)Nc1c([N+](=O)[O-])ccc(Cl)c1Cl target="BDF1 mice, P388 leukemia ip, median survival T/C" assigned_label=0.0
molecule=C=CCOC(=O)c1ccco1 target="BDF1 mice, P388 leukemia ip, median survival T/C" assigned_label=0.0
molecule=CC[C@H](c1ccc(O)cc1)[C@@H](CC)c1ccc(O)cc1 target="BDF1 mice, P388 leukemia ip, median survival T/C" assigned_label=0.0
molecule=O=S1(=O)CCN(C2CCCC2)CC1 target="BDF1 mice, P388 leukemia ip, median survival T/C" assigned_label=0.0
molecule="NC1CCC(CCCC2CCCC2)CC1 (stereo unspecified)" target="BDF1 mice, P388 leukemia ip, median survival T/C" assigned_label=0.0
molecule=CN(C)c1ccc(C=O)c(Br)c1 target="BDF1 mice, P388 leukemia ip, median survival T/C" assigned_label=0.0
molecule=C1CC[N-]CC1.C1CC[N-]CC1.C1CC[N-]CC1.[Cl][Cr]([Cl])[Cl] target="BDF1 mice, P388 leukemia ip, median survival T/C" assigned_label=0.0
molecule=NC(=O)c1cn[nH]c1N target="BDF1 mice, P388 leukemia ip, median survival T/C" assigned_label=0.0
molecule=COc1cccc2c1C(=O)CC2 target="BDF1 mice, P388 leukemia ip, median survival T/C" assigned_label=0.0
molecule="COc1ccc(C(SCC(N)C(=O)O)(c2ccccc2)c2ccccc2)cc1 (stereo unspecified)" target="BDF1 mice, P388 leukemia ip, median survival T/C" assigned_label=0.0
molecule=CC(C)=CCC/C(C)=C/CNCCc1c[nH]c2ccccc12 target="BDF1 mice, P388 leukemia ip, median survival T/C" assigned_label=0.0
molecule=COCCCNC1=C(Cl)C(=O)c2ccccc2C1=O target="BDF1 mice, P388 leukemia ip, median survival T/C" assigned_label=0.0
molecule=Cc1ccnc(NC(=O)Nc2cc(Cl)ccc2Cl)c1 target="BDF1 mice, P388 leukemia ip, median survival T/C" assigned_label=0.0
